Exercise: for every item that follows, state its recorded Z-AUC.
Experiment: qHTS drug screen for cell cycle checkpoint inhibitors in PARPi-resistant BRCA-mutant ovarian cancer cell lines. (AID 1963452)
Conditions: PEO1/OlaR viability, CellTiter-Glo luminescence, 96 h; stronger effect = lower value
// return a plain number; no unit text

Task item: Looking for the measured Z-AUC of `COc1ccc(Cn2ccc3ccc(C(=O)NO)cc32)cc1` , can you help?
Reply: 1.36

Task item: What would you report for `CCCCCCCCCCCCCC(=O)N[C@H](CO)[C@H](O)c1ccc([N+](=O)[O-])cc1` ?
Reply: 1.33

Task item: Queued: `Cc1cc2c(cc1C1(c3ccc(C(=O)O)cn3)CC1)C(C)(C)CCC2(C)C`
Reply: -0.226

====

Assay: qHTS of pediatric cancer cell lines to identify multiple opportunities for drug repurposing: Primary screen for BT-37 cells (AID 1347094); further: potency means the concentration at half of the fitted maximal effect
Settings: BT-37 viability, CellTiter-Glo luminescence, 48 h; series mostly up to 57.3 µM
Inconclusive results are not listed. The source made the active and inactive calls. The call rests on the fitted dose curve; in most records, active means well fitted cell-killing curve with a large enough effect; inconclusive means small, poorly fitted or top-dose-only effect; inactive means flat fitted curve, though single readings scatter.
readoutLabel: Potency

molecule: O=c1cc(-c2ccc(O)c(O)c2)oc2cc(O)cc(O)c12
result: inactive
//
molecule: COc1ccc2c(c1)CC[C@H]1[C@@H]2CC[C@]2(C)[C@@H](NCCCCCCN3C(=O)C=CC3=O)CC[C@H]12
result: inactive
//
molecule: Cc1cccc(Nc2nc(N[C@@H]3CCCC[C@H]3N)ncc2C(N)=O)c1
result: 27.3 µM (active)
//
molecule: COc1cccc(OC)c1-c1cc(C(=O)NC2(C(=O)O)C3CC4CC(C3)CC2C4)nn1-c1ccnc2cc(Cl)ccc12 (centres undefined)
result: inactive

====

Assay: Quantitative High-Throughput drug screen in 47 multiple myeloma cell lines against the NCATS MIPE library collection: RPMI8226_ATCC cell viability assay (AID 1919871); further: nearly all actives have a fitted effect of over 30% in size
Settings: RPMI8226 myeloma viability, CellTiter-Glo ATP luminescence, 48 h; series mostly up to 45.8 µM
Inconclusive results are not listed. Activity calls are given as the source filed them. Calls follow the shape of the dose curve; as a rule, active = well fitted cell-killing curve with a large enough effect; inconclusive = small, poorly fitted or top-dose-only effect, or effect the other way; inactive = no such curve, though single readings can be large or run the other way.
Log the outcome using a class from active, inactive

Task item: So what was the verdict on CCC(C)SSc1ncc[nH]1 (stereo unspecified) in this test?
Reply: active

Task item: Also need `CN1C(=O)C[C@H](C(=O)N[C@@H](Cc2cnc[nH]2)C(=O)N2CCC[C@@H]2C(N)=O)NC1=O` , thanks.
Reply: inactive

Task item: // repeat for `CCOC(=O)N1CCN([N+]([O-])=NOc2cc(ON=[N+]([O-])N3CCN(C(=O)OCC)CC3)c([N+](=O)[O-])cc2[N+](=O)[O-])CC1` and report
Reply: active

Task item: Can you check `CC1(COc2ccc3c(c2)ncn3-c2ccc3cccc(N4CCC(N)CC4)c3n2)COC1` next?
Reply: active

Task item: Same question, `CCC[C@H](Nc1nc(-c2ccc(NC(=O)NCC)c(OC)c2)ncc1C)c1cccnc1` this time
Reply: active

Task item: And then `CN1CCC(COc2cnc(-c3cccc(Cn4nc(-c5cccc(C#N)c5)ccc4=O)c3)nc2)CC1` , what is it?
Reply: inactive

====

Assay: qHTS of pediatric cancer cell lines to identify multiple opportunities for drug repurposing: Primary screen for SK-N-MC cells (AID 1347093)
Settings: SK-N-MC viability, CellTiter-Glo luminescence, 48 h; series mostly up to 46 µM
Results filed as inconclusive are left out. The source made the active and inactive calls. Calls follow the shape of the dose curve; as a rule, active = well fitted cell-killing curve with a large enough effect; inconclusive = small, poorly fitted or top-dose-only effect; inactive = no such curve, though single readings can be large or run the other way.
Return exactly one item of Yes = active, No = inactive

Task item: Which result was noted for this compound in the test: `C=C1[C@H](n2cnc3c(=O)[nH]c(N)nc32)C[C@H](O)[C@H]1CO`
Reply: Yes

Task item: Also `CN[C@@H]1CN(c2ccc3c(=O)c(C(=O)O)cn(-c4nccs4)c3n2)C[C@@H]1OC` , if possible.
Reply: Yes

Task item: Field entry: `CCNC(=O)c1noc(-c2cc(C(C)C)c(O)cc2O)c1-c1ccc(CN2CCOCC2)cc1`
Reply: Yes

Task item: What about `CCc1cc(-c2n[nH]c(C)c2-c2ccc3c(c2)OCCO3)c(O)cc1O` ?
Reply: Yes

Task item: Would you mind doing `NCc1c[nH]c(=S)n1[C@H]1CCc2c(F)cc(F)cc2C1` as well?
Reply: Yes

Task item: Also check `CCNC(=O)Nc1ccc(Oc2ncnc(N)c2C=NOC)cc1Cl`
Reply: Yes

Task item: Do the same for `CN(C)CCCNC(=O)c1ccc(-c2cc(O)c3ncccc3c2)cc1` please
Reply: No

====

Experiment: Quantitative High-Throughput drug screen in 47 multiple myeloma cell lines against the NCATS MIPE library collection: MM1S_ATCC cell viability assay (AID 1918980); further: nearly all actives have a fitted effect of over 45% in size
Conditions: MM1S myeloma viability, CellTiter-Glo ATP luminescence, 48 h; series mostly up to 45.8 µM
Inconclusive results are not listed. Calls of active or inactive are those of the source. Calls come from the whole dose curve; as a rule, active = well fitted cell-killing curve with a large enough effect; inconclusive = small, poorly fitted or top-dose-only effect, or effect the other way; inactive = no such curve, though single readings can be large or run the other way.
Pick one and only one: y for active, n for inactive

Task item: How did this test come out for `CC(C)Oc1cc(Nc2nc(N[C@@H](C)c3ccc(F)cn3)ncc2Cl)[nH]n1` ?
Reply: y

Task item: Proceed to CNC1CCC(N(Cc2cccc(-c3ccncc3)c2)C(=O)c2sc3ccccc3c2Cl)CC1 (stereo not given)
Reply: y

Task item: What do we get for `CCC[C@H](Nc1nc(-c2ccc(NC(=O)NCC)c(OC)c2)ncc1C)c1cccnc1` ?
Reply: y

Task item: Thanks! And `COc1cc(CNC(=O)CCCCC=CC(C)C)ccc1O` ?
Reply: n

Task item: Also, `O=C(Nc1ncc(SCCN2CCCC2)s1)[C@]1(c2ccc(S(=O)(=O)C3CC3)cc2)C[C@@H]1C1CCCCC1` please.
Reply: y

Task item: Try the compound `CCOc1ccccc1N=Nc1c(C)[nH]n(-c2nc(-c3ccccc3)cs2)c1=O`
Reply: y

Task item: Try the compound `CN1N=C(N)c2cn([C@@H]3O[C@H](COP(=O)(O)O)[C@@H](O)[C@@H]3O)c3ncnc1c23`
Reply: y

Task item: Another compound to look at: `CC(=O)N1CCN(c2ccc(OCc3nn(C)c(C)c3-c3cccc4c(CCCOc5cc(C)c(Cl)c(C)c5)c(C(=O)O)n(Cc5cccnc5)c34)cc2)CC1`
Reply: y

Task item: Note, next up: `NC(N)=Nc1nc(CSCCC(N)=NS(N)(=O)=O)cs1`
Reply: y

Task item: Next compound: CC(NCCc1ccc(O)cc1)C(O)c1ccc(O)cc1 (stereo not given)
Reply: y

Task item: What about this compound? `O=C(Nc1cccc(Cl)c1)Nc1ncc(CCNc2ncnc3ccsc23)s1`
Reply: y

Task item: Same lookup for `O=S(=O)(NCCNCC=Cc1ccc(Br)cc1)c1cccc2cnccc12` , please.
Reply: y

Task item: Another compound: `CC(=O)OCC(=O)[C@@]12OC(C)(C)O[C@H]1C[C@H]1[C@@H]3C[C@H](F)C4=CC(=O)C=C[C@]4(C)[C@@]3(F)[C@@H](O)C[C@@]12C`
Reply: y

Task item: Entry to check: O=C(CCCN1CCN(c2ccc(F)cc2)CC1)NC1c2ccccc2CSc2ccccc21 (stereo not given)
Reply: y

Task item: Entry to check: `CCCCOCCOc1nc(-c2ccc(C(=O)O)c(F)c2)sc1C`
Reply: y

Task item: Now consider `CN1CCN(c2ncc(-c3cc(Cl)cc(Cl)c3Cl)c(N)n2)CC1` .
Reply: y

Task item: Query Cc1ccccc1C(C(=O)NC1CCCCC1)N(C(=O)CNc1ccc(C#N)cc1)c1cccc(F)c1 (stereo not given) next
Reply: n

Task item: // same read-out, input: `Cc1cc(-c2ncc(CC(=O)Nc3ccc(-c4cnccn4)cn3)cc2C)ccn1`
Reply: y

Task item: Another compound to check: `CN(C)S(=O)(=O)c1ccc2c(c1)C(=Cc1cc3c([nH]1)CCCC3)C(=O)N2`
Reply: y

Task item: `Nc1ccc(-c2ccc3ncc4ccc(=O)n(-c5cccc(C(F)(F)F)c5)c4c3c2)cn1` ?
Reply: y

Task item: Let us now turn to `O=C1C(c2c(O)[nH]c3ccccc23)=Nc2ccccc21`
Reply: y

Task item: Repeat for the following compound: CN1C(=O)C(Cc2c[nH]c3ccccc23)NC1=S (stereo not given)
Reply: n

Task item: Would you kindly repeat that for `NS(=O)(=O)c1ccc(Nc2nc(OCC3CCCCC3)c3[nH]cnc3n2)cc1` ?
Reply: y

Task item: What would you report for `C=CC[N+]1([C@H]2C[C@H]3[C@@H]4CC[C@H]5C[C@H](O)[C@@H](N6CCOCC6)C[C@]5(C)[C@@H]4CC[C@]3(C)[C@H]2OC(C)=O)CCCC1` ?
Reply: y

Task item: Same again, this time with `C[C@@H]1CC=CC=CC=CC=C[C@@H](O[C@@H]2O[C@H](C)[C@@H](O)[C@H](N)[C@H]2O)C[C@@H]2O[C@](O)(C[C@@H](O)C[C@@H]3O[C@@H]3C=CC(=O)O1)C[C@H](O)[C@@H]2C(=O)O`
Reply: y

====

Experiment: qHTS drug screen for cell cycle checkpoint inhibitors in PARPi-resistant BRCA-mutant ovarian cancer cell lines. (AID 1963452)
Conditions: PEO1/OlaR viability, CellTiter-Glo luminescence, 96 h; measured here: PEO4 Z-AUC; stronger effect = lower value
just bin them by Z-AUC: lower segment = under 0.09, middle segment = from 0.09 up to 0.8, upper segment = 0.8 and over

Task item: Sort into band: `COc1nc(C)cnc1NS(=O)(=O)c1cccnc1-c1ccc(-c2nnco2)cc1`
Reply: upper segment

Task item: Check OC(c1cc(C(F)(F)F)nc2c(C(F)(F)F)cccc12)C1CCCCN1 (stereo not given) too.
Reply: middle segment

Task item: How about `O=C(Nc1ccc(OC(F)(F)F)cc1)c1sccc1NCc1ccnc2ccccc12` ?
Reply: lower segment

Task item: Proceed to Cc1nn(Cc2ccccc2Cl)c(C)c1CN(C)CC(O)COc1ccc(Cl)cc1 (stereo not given)
Reply: upper segment

Task item: Same thing, different compound: `C[C@@]1(c2cc(-c3cncnc3)c(F)cc2F)CCSC(N)=N1`
Reply: middle segment

Task item: What would you report for CCC(C)SSc1ncc[nH]1 (stereo not given) ?
Reply: lower segment

Task item: Record: `Nc1[nH]nc2nnc(-c3c(-c4ccccc4)nn4ccccc34)cc12`
Reply: lower segment

Task item: Please give the result for `O=C(CC12CC3CC(CC(C3)C1)C2)Nc1cccc2nc(NCCNCCO)ccc12` too.
Reply: middle segment

Task item: Moving on to `CCN1CCN(c2ccc(Nc3cc(N(C)C(=O)Nc4c(Cl)c(OC)cc(OC)c4Cl)ncn3)cc2)CC1`
Reply: lower segment

Task item: Same question, Cc1cc2nc3c(=O)[nH]c(=O)nc-3n(CC(O)C(O)C(O)CO)c2cc1C (stereo not given) this time
Reply: upper segment

Task item: Now the same for `CN1CC(=O)NC1=NC(=O)Nc1cccc(Cl)c1`
Reply: middle segment

Task item: Also `CCc1cccc(CC)c1NC(=O)N1Cc2[nH]nc(NC(=O)c3ccc(N4CCN(C)CC4)cc3)c2C1` , if possible.
Reply: lower segment

Task item: Also need `c1ccc(CNc2nc(N3CCOc4ccccc43)nc3c2CCCC3)cc1` , thanks.
Reply: upper segment

Task item: Here is the next compound: COc1nccc(-c2c(-c3ccc(F)cc3)ncn2C2CCC(O)CC2)n1 (stereo not given)
Reply: upper segment

Task item: Note, next up: `COc1cc2nccc(Oc3ccc(NC(=O)Nc4cc(C)on4)c(Cl)c3)c2cc1OC`
Reply: lower segment

Task item: Another compound to look at: `O=C(CO)N1CCC(c2[nH]nc(-c3ccc(Cl)cc3)c2-c2ccncn2)CC1`
Reply: middle segment

Task item: Another: `Cc1cnc(-c2cc(N3CCN(C(=O)CCS(C)(=O)=O)CC3)ncc2Cl)c(C)c1`
Reply: upper segment

Task item: Now give it for `COc1ccc(CCN(C)CCCOc2ccc(S(=O)(=O)c3[nH]c4ccccc4c3C(C)C)cc2)cc1OC` too.
Reply: middle segment
